Target: GST-Nv-NF-kB (Cys allele) (Nematostella vectensis, UniProt E5G601 2-411)
Sequence: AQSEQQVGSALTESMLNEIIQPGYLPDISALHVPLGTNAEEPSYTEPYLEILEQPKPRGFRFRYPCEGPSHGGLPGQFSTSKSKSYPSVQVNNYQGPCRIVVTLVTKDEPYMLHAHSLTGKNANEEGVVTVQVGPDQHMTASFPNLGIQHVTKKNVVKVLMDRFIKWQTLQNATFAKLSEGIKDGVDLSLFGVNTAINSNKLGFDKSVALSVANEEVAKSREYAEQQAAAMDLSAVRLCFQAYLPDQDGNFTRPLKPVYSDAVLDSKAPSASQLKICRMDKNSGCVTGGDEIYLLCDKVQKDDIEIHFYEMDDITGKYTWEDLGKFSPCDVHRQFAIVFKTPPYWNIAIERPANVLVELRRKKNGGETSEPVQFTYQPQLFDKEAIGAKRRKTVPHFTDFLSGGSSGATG
Assay: protein-binding microarray (PBM); PBM: ~300 nM protein, 6 mM HEPES pH 7.8, 80 mM KCl, 0.5 mM EDTA, 0.5 mM EGTA, 6% glycerol, 35 ng/ul poly-dIdC, 1% milk, 1 h, room temperature; high values mean tight binding
Settings: dsDNA, one strand shown
Consider the following sequences; for each one, report its binding signal.
Numbers only, in z-score.

sequence: CCGATTAACATCAATAAATACCCTGATGTTAATCGGGTCTTGATTCGCTTGACGCTGCTG
unit_symbol: z-score
binding signal: 5.36

For each of the items listed, what is its binding signal?
1. CCGATTAACATCAGGGGAATCCATGATGTTAATCGGGTCTTGATTCGCTTGACGCTGCTG
2. CCGATTAACATCACCCACTCCCCTGATGTTAATCGGGTCTTGATTCGCTTGACGCTGCTG
3. CCGATTAACATCAGGGGGTATAATGATGTTAATCGGGTCTTGATTCGCTTGACGCTGCTG
4. CCGATTAACATCAGCCCCCCGTCTGATGTTAATCGGGTCTTGATTCGCTTGACGCTGCTG
5. CCGATTAACATCATGGGGAAAAATGATGTTAATCGGGTCTTGATTCGCTTGACGCTGCTG

1: 9.29; 2: 2.69; 3: 3.26; 4: 2.22; 5: 6.62

Which binding signal is listed for CCGATTAACATCAAAAATTCCCCTGATGTTAATCGGGTCTTGATTCGCTTGACGCTGCTG ?
12.8

---

Target: GST-Dm-Relish (Drosophila melanogaster, UniProt Q94527 99-473)
Sequence: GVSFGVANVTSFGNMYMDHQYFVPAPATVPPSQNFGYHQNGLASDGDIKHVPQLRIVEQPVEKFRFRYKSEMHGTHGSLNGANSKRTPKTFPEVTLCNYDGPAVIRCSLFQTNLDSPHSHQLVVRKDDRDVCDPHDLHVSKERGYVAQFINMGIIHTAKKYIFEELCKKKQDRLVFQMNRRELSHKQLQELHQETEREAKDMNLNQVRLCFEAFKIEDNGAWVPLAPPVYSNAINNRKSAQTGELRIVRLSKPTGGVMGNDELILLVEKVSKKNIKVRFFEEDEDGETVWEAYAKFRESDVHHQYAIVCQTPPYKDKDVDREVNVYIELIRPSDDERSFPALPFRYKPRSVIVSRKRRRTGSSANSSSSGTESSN
Experiment: protein-binding microarray (PBM); PBM: ~300 nM protein, 6 mM HEPES pH 7.8, 80 mM KCl, 0.5 mM EDTA, 0.5 mM EGTA, 6% glycerol, 35 ng/ul poly-dIdC, 1% milk, 1 h, room temperature; high values mean tight binding
Conditions: dsDNA, one strand shown
Give binding signal for every item shown.
Numbers only, in z-score.

sequence: CCGATTAACATCAGGGATGCCCCTGATGTTAATCGGGTCTTGATTCGCTTGACGCTGCTG
binding signal [z-score]: 9.08
//
sequence: CCGATTAACATCAGAATATCCCATGATGTTAATCGGGTCTTGATTCGCTTGACGCTGCTG
binding signal [z-score]: 1.8
//
sequence: CCGATTAACATCAGGGGCAGTACTGATGTTAATCGGGTCTTGATTCGCTTGACGCTGCTG
binding signal [z-score]: 3.44
//
sequence: CCGATTAACATCAGGGAATGCCATGATGTTAATCGGGTCTTGATTCGCTTGACGCTGCTG
binding signal [z-score]: 2.52
//
sequence: CCGATTAACATCAACTTTCCCCCTGATGTTAATCGGGTCTTGATTCGCTTGACGCTGCTG
binding signal [z-score]: 3.9

Below are 4 sequences. Give each one its binding signal.
1. CCGATTAACATCAAAAGCCCCCATGATGTTAATCGGGTCTTGATTCGCTTGACGCTGCTG
2. CCGATTAACATCAGGAAAAATCCTGATGTTAATCGGGTCTTGATTCGCTTGACGCTGCTG
3. CCGATTAACATCAAGTAAATTCCTGATGTTAATCGGGTCTTGATTCGCTTGACGCTGCTG
4. CCGATTAACATCAAAATCCCCCATGATGTTAATCGGGTCTTGATTCGCTTGACGCTGCTG

1. 6.91
2. 1.66
3. 2.49
4. 8.88

---

Target: GST-Dm-Relish (Drosophila melanogaster, UniProt Q94527 99-473)
Sequence: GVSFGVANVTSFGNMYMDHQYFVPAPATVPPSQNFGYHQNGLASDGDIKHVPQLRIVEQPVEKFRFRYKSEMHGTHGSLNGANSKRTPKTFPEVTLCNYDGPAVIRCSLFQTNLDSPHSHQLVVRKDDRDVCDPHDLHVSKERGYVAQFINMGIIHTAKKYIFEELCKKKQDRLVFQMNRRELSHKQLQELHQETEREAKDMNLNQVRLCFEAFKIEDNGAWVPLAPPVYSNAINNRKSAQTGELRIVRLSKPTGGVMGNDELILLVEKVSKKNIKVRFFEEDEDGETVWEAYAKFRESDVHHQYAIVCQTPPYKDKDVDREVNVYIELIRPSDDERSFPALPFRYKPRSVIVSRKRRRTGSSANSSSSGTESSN
Assay: protein-binding microarray (PBM); PBM: ~300 nM protein, 6 mM HEPES pH 7.8, 80 mM KCl, 0.5 mM EDTA, 0.5 mM EGTA, 6% glycerol, 35 ng/ul poly-dIdC, 1% milk, 1 h, room temperature; high values mean tight binding
Settings: dsDNA, one strand shown
Each entry belongs to exactly one class, chosen by where its binding signal falls: lower bin = under 3 z-score, middle bin = from 3 z-score up to 5 z-score, upper bin = 5 z-score and over

Example cases with answers are listed next.
sequence: CCGATTAACATCAGAAAGCCCCCTGATGTTAATCGGGTCTTGATTCGCTTGACGCTGCTG
class_assignment: upper bin
//
sequence: CCGATTAACATCAGTACTTTCCATGATGTTAATCGGGTCTTGATTCGCTTGACGCTGCTG
class_assignment: upper bin
//
sequence: CCGATTAACATCAAAAGTTTCCCTGATGTTAATCGGGTCTTGATTCGCTTGACGCTGCTG
class_assignment: middle bin

Bin? CCGATTAACATCAAAAAGCCCCCTGATGTTAATCGGGTCTTGATTCGCTTGACGCTGCTG
upper bin

Exercise: read the entry CCGATTAACATCAGGAGTTTACCTGATGTTAATCGGGTCTTGATTCGCTTGACGCTGCTG and state which class it falls under.
middle bin

Class label required: CCGATTAACATCAGGGGGGAACCTGATGTTAATCGGGTCTTGATTCGCTTGACGCTGCTG
upper bin

Hi there! Could you help me figure out the category for CCGATTAACATCAGGCATACCCCTGATGTTAATCGGGTCTTGATTCGCTTGACGCTGCTG please?
lower bin

---

Target: GST-Co-NF-kB (Capsaspora owczarzaki, UniProt F1ARL5 200-546)
Sequence: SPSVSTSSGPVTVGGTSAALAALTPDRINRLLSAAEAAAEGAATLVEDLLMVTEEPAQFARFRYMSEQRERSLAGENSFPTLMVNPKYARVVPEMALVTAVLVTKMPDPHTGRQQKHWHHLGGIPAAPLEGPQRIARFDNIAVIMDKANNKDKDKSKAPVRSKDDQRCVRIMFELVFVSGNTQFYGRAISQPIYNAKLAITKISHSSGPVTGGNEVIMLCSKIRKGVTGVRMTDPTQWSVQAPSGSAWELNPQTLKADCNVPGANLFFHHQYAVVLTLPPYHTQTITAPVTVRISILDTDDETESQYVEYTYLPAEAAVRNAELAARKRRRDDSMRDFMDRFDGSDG
Test: protein-binding microarray (PBM); PBM: ~300 nM protein, 6 mM HEPES pH 7.8, 80 mM KCl, 0.5 mM EDTA, 0.5 mM EGTA, 6% glycerol, 35 ng/ul poly-dIdC, 1% milk, 1 h, room temperature; Ap Aiptasia and Nv Nematostella (sea anemones) / Co Capsaspora / Aq Amphimedon (sponge) / Dm Drosophila / Hu human; RHD is the Rel homology domain; high values mean tight binding
Settings: dsDNA, one strand shown
Flag rule - binding signal less than 3 z-score flags Y; the remaining entries get N.

I wonder whether CCGATTAACATCAGATTTTCCCCTGATGTTAATCGGGTCTTGATTCGCTTGACGCTGCTG has binding signal below 3 z-score. Can you tell?
N

State whether 3 z-score exceeds binding signal recorded for CCGATTAACATCACCATTTCCCCTGATGTTAATCGGGTCTTGATTCGCTTGACGCTGCTG .
N

hey, is binding signal for CCGATTAACATCAATCACCCCCCTGATGTTAATCGGGTCTTGATTCGCTTGACGCTGCTG lower than 3 z-score or not?
N

API: query returns whether the sequence falls strictly under 3 z-score in binding signal. Query: CCGATTAACATCACGGAGTTCCCTGATGTTAATCGGGTCTTGATTCGCTTGACGCTGCTG
Y

Please let me know if CCGATTAACATCAATACTCCCCCTGATGTTAATCGGGTCTTGATTCGCTTGACGCTGCTG shows binding signal below 3 z-score.
N

Strictly below 3 z-score: is that where binding signal of CCGATTAACATCACTCTTTCCCCTGATGTTAATCGGGTCTTGATTCGCTTGACGCTGCTG sits?
N

Lab note: binding signal threshold 3 z-score. Does this sequence come in strictly under it? CCGATTAACATCAGGGATGCCCCTGATGTTAATCGGGTCTTGATTCGCTTGACGCTGCTG
Y

Does the reported binding signal of CCGATTAACATCAAAAGCCCCCTTGATGTTAATCGGGTCTTGATTCGCTTGACGCTGCTG stay below 3 z-score?
Y

Does CCGATTAACATCAGGCGATCCCCTGATGTTAATCGGGTCTTGATTCGCTTGACGCTGCTG have binding signal strictly under 3 z-score?
Y

Please let me know if CCGATTAACATCACGTGATTCCCTGATGTTAATCGGGTCTTGATTCGCTTGACGCTGCTG shows binding signal below 3 z-score.
Y
